- ASSAYED TARGET: human recombinant AKR1B1 (Homo sapiens, UniProt P15121)
- Construct: made in house
- ASSAY TEXT: AKR1B1 activity inhibition, decrease in absorbance at 340 nm linked to NADPH oxidation
- Type: biochemical
- CONDITION: IC50 for GSHNE reduction, […] GSHNE as substrate, 10 mU AKR1B1, 37 °C, pH 6.8; 95% CLs in text
EXPERIMENTAL ENDPOINT: pIC50
Numbers only, as −log10 of the molar value.

Entry O=C(O[C@@H]1Cc2c(O)cc(O)cc2O[C@@H]1c1ccc(O)c(O)c1)c1cc(O)c(O)c(O)c1 [ECG, epicatechin gallate] has what pIC50? 3.84

* * *

- ASSAYED TARGET: human recombinant AKR1B1 (Homo sapiens)
- Construct: made in house
- ASSAY TEXT: Inhibition kinetic analysis of AKR1B1-dependent reduction of L-idose, HNE and GSHNE
- Type: biochemical
- CONDITION: Ki*, HNE reduction; apparent dissociation constant of ternary complex EIS
EXPERIMENTAL ENDPOINT: Ki

Entry O=C(O[C@@H]1Cc2c(O)cc(O)cc2O[C@@H]1c1ccc(O)c(O)c1)c1cc(O)c(O)c(O)c1 [ECG, epicatechin gallate] has what Ki? 54 µM

* * *

- ASSAYED TARGET: human recombinant AKR1B1 (Homo sapiens, UniProt P15121)
- Construct: made in house
- ASSAY TEXT: Inhibition kinetic analysis of AKR1B1-dependent reduction of L-idose, HNE and GSHNE
- Assay type: biochemical
- CONDITION: Ki, L-idose reduction; dissociation constant of enzyme-inhibitor complex
EXPERIMENTAL ENDPOINT: pKi
Give bare numbers, as −log10 of the molar value.

Entry O=C(O[C@@H]1Cc2c(O)cc(O)cc2O[C@@H]1c1ccc(O)c(O)c1)c1cc(O)c(O)c(O)c1 [ECG, epicatechin gallate] has what pKi? 3.94

* * *

- ASSAYED TARGET: human recombinant AKR1B1 (Homo sapiens, UniProt P15121)
- Construct: made in house
- ASSAY TEXT: Inhibition kinetic analysis of AKR1B1-dependent reduction of L-idose, HNE and GSHNE
- Type: biochemical
- CONDITION: Ki*, GSHNE reduction; apparent dissociation constant of ternary complex EIS
EXPERIMENTAL ENDPOINT: pKi
Numbers only, as −log10 of the molar value.

Entry O=C(O[C@@H]1Cc2c(O)cc(O)cc2O[C@@H]1c1ccc(O)c(O)c1)c1cc(O)c(O)c(O)c1 [ECG, epicatechin gallate] has what pKi? 4.34

* * *

- ASSAYED TARGET: human recombinant AKR1B1 (Homo sapiens)
- Construct: made in house
- ASSAY TEXT: Inhibition kinetic analysis of AKR1B1-dependent reduction of L-idose, HNE and GSHNE
- Type: biochemical
- CONDITION: Ki, HNE reduction; dissociation constant of enzyme-inhibitor complex
pKi: −log10 of the molar value.
EXPERIMENTAL ENDPOINT: pKi

Entry O=C(O[C@@H]1Cc2c(O)cc(O)cc2O[C@@H]1c1ccc(O)c(O)c1)c1cc(O)c(O)c(O)c1 [ECG, epicatechin gallate] has what pKi? < 2.00

* * *

- ASSAYED TARGET: human recombinant AKR1B1 (Homo sapiens)
- Construct: made in house
- ASSAY TEXT: Inhibition kinetic analysis of AKR1B1-dependent reduction of L-idose, HNE and GSHNE
- Assay type: biochemical
- CONDITION: Ki, GSHNE reduction; dissociation constant of enzyme-inhibitor complex
EXPERIMENTAL ENDPOINT: Ki (µM)
Give bare numbers, in µM.

Entry O=C(O[C@@H]1Cc2c(O)cc(O)cc2O[C@@H]1c1ccc(O)c(O)c1)c1cc(O)c(O)c(O)c1 [ECG, epicatechin gallate] has what Ki? 91
